# Target: T1, Bdf1 bromodomain 1 (GST-tagged, WT) (Saccharomyces cerevisiae (strain ATCC …, UniProt P35817))
# T1 chain: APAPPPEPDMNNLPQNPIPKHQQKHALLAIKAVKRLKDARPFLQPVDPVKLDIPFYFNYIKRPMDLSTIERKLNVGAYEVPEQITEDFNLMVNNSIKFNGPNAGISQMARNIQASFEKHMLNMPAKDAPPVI
# Experiment notes: histone peptide array probed with recombinant GST-bromodomain, signal normalised to myc peptide control
Non-standard residues stand in square brackets, D forms with d. No end group written: not given here. Arg(Me2a) = CN(C)C(=N)NCCC[C@H](N)C(=O)O; Lys(Me3) = C[N+](C)(C)CCCC[C@H](N)C(=O)O; Arg(Me2s) = CN=C(NC)NCCC[C@H](N)C(=O)O; pT = C[C@@H](OP(=O)(O)O)[C@H](N)C(=O)O; pS = N[C@@H](COP(=O)(O)O)C(=O)O
What binding score was measured for each of the following?
Give your answer as a number; write no unit.

Ask: I have this binder here, ARTKQTARKSTGGKAPRKQ (A Rme2s T Kme2 Q T A Rme2s Kme1 S T G G K A P R K Q) , and I need its recorded binding score.
Reply: 0.00323

Ask: Fill in the blank: the reported binding score of ARTKQTARKSTGGKAPRKQ (A Rme2a T Kme3 Q T A Rme2a Kme2 S T G G K A P R K Q) is ____.
Reply: 0

Ask: Which binding score is reported for this binder? "ARTKQTA[Arg(Me2a)][Lys(Me3)][pS][pT]GGKAPRKQ"
Reply: 0.00251

Ask: Please look up its binding score: "ARTKQTA[Arg(Me2s)]K(Ac)S[pT]GGKAPRKQ"
Reply: 0.0118

These data points were gathered from paper PMC5261807.
